# PROTOCOL_DETAILS: gradient 5% acetonitrile 3 min, to 50% in 2 min, to 85% in 15 min, held 3 min, 100 µL/min
# CONDITIONS_USED: column: Zorbax Extend-C18 2.1 x 50 mm; eluents: water / acetonitrile, 0.1% formic acid
PARAMETER: RP-LC retention time (s)

{"columns": ["COMPOUND", "RP-LC retention time [s]"],
 "data": [
  ["O=C(NC(Cc1ccccc1)C(=O)N1CCN(c2ccccn2)CC1)c1ccc(Cl)cc1 (stereo not given)", 692],
  ["CCn1ccc2sc(C)c(C(=O)NC(C)c3ccc(F)cc3)c2c1=O (stereo not given)", 808],
  ["Cc1cccc(C#Cc2ccccc2)n1", 833],
  ["COc1ccc(NC(=O)Cn2c(=O)c(CCC(=O)NC3CCCCC3)nc3ccccc32)c(OC)c1", 839],
  ["Cc1ccc(F)cc1S(=O)(=O)N1CCC(n2cnnc2C(C)C)CC1", 740],
  ["COc1ccc(Nc2c(C(=O)N3CCCC3)cnc3nc(C)ccc23)c(OC)c1", 600],
  ["O=C(Cc1nnc(-c2ccc3ncccc3c2)o1)NCc1ccc(Cl)cc1", 721],
  ["COc1ccc(NC(=O)CCC2CCN(c3cc(NC4CC4)ncn3)CC2)c(C)c1", 575]
]}

I = CCC1(O)CCOC2(CCN(C(=O)C3CC=CC3)CC2)C1 (stereo not given)
II = COc1ccc(-c2ncc3c(n2)CCN(S(=O)(=O)c2ccc(OC)c(Cl)c2)C3)cc1
Given the two records I and II , choose the one whose RP-LC retention time value is lower. Choose, then provide that item's label.
I

====

# PROTOCOL_DETAILS: gradient 5% acetonitrile 3 min, to 50% in 2 min, to 85% in 15 min, held 3 min, 100 µL/min
# CONDITIONS_USED: column: Zorbax Extend-C18 2.1 x 50 mm; eluents: water / acetonitrile, 0.1% formic acid
PARAMETER: RP-LC retention time (s)

{"columns": ["MOLECULE", "OBSERVED_MEASUREMENT"],
 "data": [
  ["COc1ccc(NC(=O)c2ccc(N3C(=O)CCC3=O)cc2)c2ccccc12", 691],
  ["CN(C)CCNC(=O)CN1C(=O)C2CCCCN2c2ccc(C(=O)N3CCCC3)cc21 (stereo not given)", 596],
  ["Cc1ccc(NC(=O)N2CCCC2c2nncn2C2CCCC2)c(C)c1 (stereo not given)", 692],
  ["CCOC(=O)c1cc(C)nc2c1c(=O)n(Cc1ccccc1C)c(=O)n2C", 872],
  ["O=C(c1ccc2c(c1)nnn2Cc1ccccc1)N1CCN(c2ncccn2)CC1", 766]
]}

====

# PROTOCOL_DETAILS: gradient 5% acetonitrile 3 min, to 50% in 2 min, to 85% in 15 min, held 3 min, 100 µL/min
# CONDITIONS_USED: column: Zorbax Extend-C18 2.1 x 50 mm; eluents: water / acetonitrile, 0.1% formic acid
PARAMETER: RP-LC retention time (s)

{"columns": ["COMPOUND", "READOUT_UNIT", "RP-LC retention time"],
 "data": [
  ["Cc1ccc(-c2cn3c(CC(=O)N4CCCc5ccccc54)csc3n2)cc1C", "s", 956],
  ["CCc1ccc(-c2cc3c(=O)n(CC(O)c4ccccc4OC)ccn3n2)cc1 (stereo not given)", "s", 790],
  ["COc1ccc(NC(=O)N2CCC(N3CCN(Cc4ccccc4)C3=O)CC2)c(OC)c1", "s", 796],
  ["CCN(CC)c1ccc(CN(C(=O)Cc2coc3ccc(C)cc23)C2CCS(=O)(=O)C2)cc1 (stereo not given)", "s", 706],
  ["CS(=O)(=O)Nc1cccc(NC(=O)CCc2c[nH]c3ccccc23)c1", "s", 714]
]}
